Assay: Brain and plasma concentrations in mice after intraperitoneal administration (LC-MS-MS), non-compartmental analysis
Type: in vivo
Conditions: male, Swiss-Webster, mouse, plasma, intraperitoneal, 10 mg/kg, 2 h, 10 mg/kg; read-out: Conc (plasma, NCA input)
In this section, each of the compounds is paired with its reported concentration at 2 h.
Endpoint: concentration at 2 h (µg/mL)

• Oc1ccc2c3c1O[C@H]1c4[nH]c5c(c4C[C@@]4(O)[C@@H](C2)N(CC2CC2)CC[C@]314)C[C@@]1(O)[C@H]2Cc3ccc(O)c4c3[C@@]1(CCN2CC1CC1)[C@H]5O4 [nor-BNI, norbinaltorphimine] = 0.339
• N=C(N)Nc1ccc2[nH]c3c(c2c1)C[C@@]1(O)[C@H]2Cc4ccc(O)c5c4[C@@]1(CCN2CC1CC1)[C@H]3O5 [GNTI, 5’-guanidinonaltrindole] = 2.58
• CC(C)[C@@H](CN1CC[C@@](C)(c2cccc(O)c2)[C@@H](C)C1)NC(=O)[C@H]1Cc2ccc(O)cc2CN1 [JDTic] = 0.0569

---

Assay: Brain and plasma concentrations in mice after intraperitoneal administration (LC-MS-MS), non-compartmental analysis
Format: in vivo
Conditions: male, Swiss-Webster (Crl:CFW(SW)), mouse, brain, ip, 10 mg/kg, 4 h, 10 mg/kg i.p.; read-out: mean (brain)
Endpoint: concentration at 4 h

* CC(C)[C@@H](CN1CC[C@@](C)(c2cccc(O)c2)[C@@H](C)C1)NC(=O)[C@H]1Cc2ccc(O)cc2CN1 | 62.4 ng/g

---

Test: Brain and plasma concentrations in mice after intraperitoneal administration (LC-MS-MS), non-compartmental analysis
Assay type: in vivo
Conditions: male, Swiss-Webster, mouse, brain, ip, 10 mg/kg, brain NCA, 10 mg/kg i.p.; read-out: t1/2 (converted)
Endpoint: half-life (h)

- CC(C)[C@@H](CN1CC[C@@](C)(c2cccc(O)c2)[C@@H](C)C1)NC(=O)[C@H]1Cc2ccc(O)cc2CN1 [JDTic]: 220

---

Experiment: Brain and plasma concentrations in mice after intraperitoneal administration (LC-MS-MS), non-compartmental analysis
Assay type: in vivo
Settings: male, Swiss-Webster, mouse, brain and plasma (unbound), ip; 10 mg kg^-1 i.p., mice; read-out: Cmax,brain,u/Cmax,p,u
Endpoint: Kp uu

- Oc1ccc2c3c1O[C@H]1c4[nH]c5c(c4C[C@@]4(O)[C@@H](C2)N(CC2CC2)CC[C@]314)C[C@@]1(O)[C@H]2Cc3ccc(O)c4c3[C@@]1(CCN2CC1CC1)[C@H]5O4: < 0.009

---

Assay: Brain and plasma concentrations in mice after intraperitoneal administration (LC-MS-MS), non-compartmental analysis
Format: in vivo
Settings: male, Swiss-Webster, mouse, ip; brain NCA, 10 mg/kg i.p.; read-out: Lambda_z (converted)
In this section, each of the molecules is paired with its reported k el.
Endpoint: k el (s⁻¹)

* Oc1ccc2c3c1O[C@H]1c4[nH]c5c(c4C[C@@]4(O)[C@@H](C2)N(CC2CC2)CC[C@]314)C[C@@]1(O)[C@H]2Cc3ccc(O)c4c3[C@@]1(CCN2CC1CC1)[C@H]5O4 [nor-BNI, norbinaltorphimine] | 0.000288
* CC(C)[C@@H](CN1CC[C@@](C)(c2cccc(O)c2)[C@@H](C)C1)NC(=O)[C@H]1Cc2ccc(O)cc2CN1 [JDTic] | 8.75e-07
